- System: rodent lifetime carcinogenesis bioassay, tumor incidence TD50
- assay-details: carcinogenic potency in animals, long-term in vivo studies, CPDB compilation (AID 1745844)
- condition-context: mouse; strain Swiss CD-1; males; in drinking water; site: lung; lesion: one or several types; types not named; dosed 34 weeks; study length 118 weeks
Calls of active or inactive are those of the source. The rule behind the calls is not given here.
readout-name: TD50

1) CNc1ncnc2c1ncn2[C@@H]1O[C@H](CO)[C@@H](O)[C@H]1O: 55.6 mg/kg/day (inactive)

* * *

- System: rodent lifetime carcinogenesis bioassay, tumor incidence TD50
- assay-details: carcinogenic potency in animals, long-term in vivo studies, CPDB compilation (AID 1745844)
- condition-context: mouse; strain CDF1; males; in feed; site: liver; lesion: hepatocellular carcinoma; dosed 73 weeks; study length 73 weeks
readout-name: TD50 (mg/kg/day)

1) Cc1cc2c(nc1N)[nH]c1ccccc12: 127
